# System: WM-115 (Melanoma)
# experimental protocol: combination Emax (second highest fraction inhibited in the dose matrix, 72 h); higher = more inhibition; extreme values may be limits of the assay
Each entry gets not met if its combination Emax stays under 0.3, and met if its combination Emax is 0.3 or above.

compound	group
Cc1cc2ncnn2cc1Nc1ncc2c(n1)n(C1CCOCC1)c(=O)n2C [AZD7648] + CN(C)CCCOc1ccc(-c2ccc3ncc4c(c3c2)n(C2CCOCC2)c(=O)n4C)cn1 [AZD0156] (first compound max 10 µM, 7x7, partner max 1 µM)	met
COc1cccc2c1C(=O)c1c(O)c3c(c(O)c1C2=O)C[C@@](O)(C(=O)CO)C[C@@H]3O[C@H]1C[C@H](N)[C@H](O)[C@H](C)O1 [Doxorubicin] + Cc1cc2ncnn2cc1Nc1ncc2c(n1)n(C1CCOCC1)c(=O)n2C [AZD7648] (first compound max 1 µM, 7x7, partner max 10 µM)	met
Cn1cnc2c(F)c(Nc3ccc(Br)cc3Cl)c(C(=O)NOCCO)cc21 [Selumetinib] + C[C@@H]1COCCN1C2=NC(=NC(=C2)C3(CC3)[S@](=N)(=O)C)C4=C5C=CNC5=NC=C4 [AZD6738] (first compound max 10 µM, 7x7, partner max 10 µM)	met
CN(CCO)CC[C@H](CSc1ccccc1)Nc1ccc(S(=O)(=O)NC(=O)c2ccc(N3CCC([C@@H](O)c4ccccc4-c4ccc(Cl)cc4)CC3)cc2)cc1S(=O)(=O)C(F)(F)F [AZD4320] + CN(C)CCCOc1ccc(-c2ccc3ncc4c(c3c2)n(C2CCOCC2)c(=O)n4C)cn1 [AZD0156] (first compound max 1 µM, 7x7, partner max 1 µM)	met

Prompt line: hey, is combination Emax for this one >= 0.3? Cc1c2c(nn1C)CSCc1cc(n(C)n1)CSc1cc(c3ccccc3c1)OCCCc1c(C(=O)O)n(C)c3c-2c(Cl)ccc13 [AZD5991] + Cn1cnc2c(F)c(Nc3ccc(Br)cc3Cl)c(C(=O)NOCCO)cc21 [Selumetinib] (first compound max 1 µM, 7x7, partner max 3 µM)
Response line: met

Prompt line: Does the reported combination Emax for Cc1c2c(nn1C)CSCc1cc(n(C)n1)CSc1cc(c3ccccc3c1)OCCCc1c(C(=O)O)n(C)c3c-2c(Cl)ccc13 [AZD5991] + CCN(CCO)CCCOc1ccc2c(Nc3cc(CC(=O)Nc4cccc(F)c4)[nH]n3)ncnc2c1 [AZD2811] (first compound max 1 µM, 7x7, partner max 1 µM) fall at or above the 0.3 mark?
Response line: not met

Prompt line: Confirm if combination Emax reported for the compound CC1(C)CCC(CN2CCN(c3ccc(C(=O)NS(=O)(=O)c4ccc(NCC5CCOCC5)c([N+](=O)[O-])c4)c(Oc4cnc5[nH]ccc5c4)c3)CC2)=C(c2ccc(Cl)cc2)C1 [Venetoclax] + Cc1cc2ncnn2cc1Nc1ncc2c(n1)n(C1CCOCC1)c(=O)n2C [AZD7648] (first compound max 1 µM, 7x7, partner max 10 µM) is 0.3 or above.
Response line: not met
